Listed here: items and their measured MIC.
- System: Staph. aureus
- protocol: in vitro agar dilution assay (MIC), Staph. aureus
- Format: cell-based
- run-parameters: Staphylococcus aureus, Staph. aureus strain X400; read-out: Agar Dilution MIC

compound: CC1=C(C(=O)O)N2C(=O)[C@@H](NC(=O)[C@H](N)c3cc4sc(Cl)cc4s3)[C@H]2SC1 [Ex. 2B]
MIC: > 64 µg/mL
//
compound: CC1=C(C(=O)O)N2C(=O)[C@@H](NC(=O)[C@@H](N)c3cc4sccc4s3)[C@H]2SC1 [Ex. 1B]
MIC: > 64 µg/mL
//
compound: CC1=C(C(=O)O)N2C(=O)[C@@H](NC(=O)[C@@H](N)c3cc4sc(Cl)cc4s3)[C@H]2SC1 [Ex. 2A]
MIC: > 64 µg/mL
//
compound: CC1=C(C(=O)O)N2C(=O)[C@@H](NC(=O)[C@H](N)c3cc4ccsc4s3)[C@H]2SC1 [Ex. 3A]
MIC: > 64 µg/mL
//
compound: CC1=C(C(=O)O)N2C(=O)[C@@H](NC(=O)[C@@H](N)c3cc4ccsc4s3)[C@H]2SC1 [Ex. 3B]
MIC: > 64 µg/mL
//
compound: CC1=C(C(=O)O)N2C(=O)[C@@H](NC(=O)[C@H](N)c3cc4sccc4s3)[C@H]2SC1 [Ex. 1A]
MIC: > 64 µg/mL

###

- Test system: Strep. A
- protocol: in vitro agar dilution assay (MIC), Strep. A
- Format: cell-based
- run-parameters: Strep. A strain C203; read-out: Agar Dilution MIC
Could you mark each record 1.0 if its MIC falls strictly under 1 µg/mL, and 0.0 if it equals or exceeds it?

compound: CC1=C(C(=O)O)N2C(=O)[C@@H](NC(=O)[C@H](N)c3cc4ccsc4s3)[C@H]2SC1
answer-label: 1.0
--
compound: CC1=C(C(=O)O)N2C(=O)[C@@H](NC(=O)[C@H](N)c3cc4sc(Cl)cc4s3)[C@H]2SC1
answer-label: 1.0
--
compound: CC1(C)S[C@@H]2[C@H](NC(=O)[C@H](N)c3ccccc3)C(=O)N2[C@H]1C(=O)O [Ampicillin, reference compound]
answer-label: 1.0
--
compound: CC1=C(C(=O)O)N2C(=O)[C@@H](NC(=O)[C@@H](N)c3cc4sccc4s3)[C@H]2SC1
answer-label: 0.0
--
compound: CC1=C(C(=O)O)N2C(=O)[C@@H](NC(=O)[C@H](N)c3cc4sccc4s3)[C@H]2SC1
answer-label: 1.0

###

- Test system: Staph. epi
- protocol: in vitro agar dilution assay (MIC), Staph. epi
- Format: cell-based
- run-parameters: Staph. epi strain EPI1; read-out: Agar Dilution MIC
The compounds listed here are annotated with their MIC.
readout: MIC (µg/mL)

compound: CC1=C(C(=O)O)N2C(=O)[C@@H](NC(=O)[C@@H](N)c3cc4ccsc4s3)[C@H]2SC1
unit-abbrev: µg/mL
readout-value: 8

compound: CC1=C(C(=O)O)N2C(=O)[C@@H](NC(=O)[C@@H](N)c3cc4sc(Cl)cc4s3)[C@H]2SC1
unit-abbrev: µg/mL
readout-value: 16

compound: CC1=C(C(=O)O)N2C(=O)[C@@H](NC(=O)[C@H](N)c3ccccc3)[C@H]2SC1 [Cephalexin, reference compound]
unit-abbrev: µg/mL
readout-value: 32

compound: CC1=C(C(=O)O)N2C(=O)[C@@H](NC(=O)[C@H](N)c3cc4sccc4s3)[C@H]2SC1
unit-abbrev: µg/mL
readout-value: 16

compound: CC1=C(C(=O)O)N2C(=O)[C@@H](NC(=O)[C@@H](N)c3cc4sccc4s3)[C@H]2SC1
unit-abbrev: µg/mL
readout-value: 64

compound: CC1=C(C(=O)O)N2C(=O)[C@@H](NC(=O)[C@H](N)c3cc4ccsc4s3)[C@H]2SC1
unit-abbrev: µg/mL
readout-value: 4

compound: CC1(C)S[C@@H]2[C@H](NC(=O)[C@H](N)c3ccccc3)C(=O)N2[C@H]1C(=O)O [Ampicillin, reference compound]
unit-abbrev: µg/mL
readout-value: 8

compound: CC1=C(C(=O)O)N2C(=O)[C@@H](NC(=O)[C@H](N)c3cc4sc(Cl)cc4s3)[C@H]2SC1
unit-abbrev: µg/mL
readout-value: 4
